Recorded values, source patent US20240158368A1.

- PROCEDURE_SUMMARY: in vitro
- EXPERIMENTAL_CONDITIONS: human, microsomes, pH 7.4
Property: CLint scaled; scope: individual molecules
METRIC: CLint scaled

INSERT INTO assay_data (smiles_code, result_value) VALUES
  ('Cc1cc(C(=O)N[C@@H]2CCN(c3c(C(=O)N4CCOCC4)cc(C#N)cc3C(F)F)C2)c(F)c(=O)[nH]1', '< 25 mL/min/kg'),
  ('N#Cc1cc(C(=O)N2CCOCC2)c(N2CC[C@@H](NC(=O)c3c(F)c(=O)[nH]c4ccccc34)C2)c(C(F)(F)F)c1', '< 35 mL/min/kg'),
  ('O=C(N[C@@H]1CC(=O)N(c2c(C(=O)N3CCOCC3)cc(Br)cc2C(F)(F)F)C1)c1c(F)c(=O)[nH]c2c(F)c(F)ccc12', '< 38.3 mL/min/kg'),
  ('Cc1[nH]c(=O)cc(C(=O)N[C@@H]2CCN(c3c(C(=O)N4CCOCC4)cc(Br)cc3C(F)(F)F)C2)c1F', '< 61.7 mL/min/kg'),
  ('NC(=O)c1cc(C(=O)N2CCOCC2)c(N2CC[C@@H](NC(=O)c3cc(=O)[nH]c4c(F)cccc34)C2)c(C(F)(F)F)c1', '< 28.3 mL/min/kg'),
  ('COc1cccc2[nH]c(=O)cc(C(=O)N[C@@H]3CCN(c4c(C(=O)N5CCOCC5)cc(C#N)cc4C(F)(F)F)C3)c12', '< 35 mL/min/kg'),
  ('CN1CCN(C(=O)c2cc(C#N)cc(C(F)(F)F)c2N2CC[C@@H](NC(=O)c3cc(=O)[nH]c4c(F)cccc34)C2)CC1', '< 30 mL/min/kg');

* * *

- TARGET_OR_TEST_SYSTEM: SARS-CoV-2 Mpro (Severe acute respiratory syndrome coronavirus 2 (2019-nCoV) (SARS-CoV-2))
EC50 strictly under 0.5 nM means yes (1); at 0.5 nM or over means no (0).

INSERT INTO measurements (compound, assigned_label) VALUES
  ('N#Cc1cc(C(=O)N2CCOCC2)c(N2CC[C@@H](NC(=O)c3c(F)c(=O)[nH]c4ccccc34)C2)c(C(F)(F)F)c1 [Compound 6]', 'no (0)'),
  ('Cc1cc(C(=O)N[C@@H]2CCN(c3c(C(=O)N4CCOCC4)cc(Br)cc3C(F)(F)F)C2)c(F)c(=O)[nH]1 [Compound 3]', 'no (0)'),
  ('O=C(N[C@@H]1CCN(c2c(C(=O)N3CCOCC3)cc(Cl)cc2C(F)(F)F)C1)c1c(F)c(=O)[nH]c2c(F)cccc12 [Compound 55]', 'yes (1)'),
  ('O=C(N[C@@H]1CCN(c2c(C(=O)N3CCOCC3)cc(Br)cc2C(F)(F)F)C1)c1cc(=O)[nH]c2ccccc12 [Compound 56]', 'yes (1)'),
  ('O=C(N[C@@H]1CC(=O)N(c2c(C(=O)N3CCOCC3)cc(Br)cc2C(F)(F)F)C1)c1c(F)c(=O)[nH]c2c(F)c(F)ccc12 [Compound 77]', 'no (0)'),
  ('CN1CCN(C(=O)c2cc(C#N)cc(C(F)(F)F)c2N2CC[C@@H](NC(=O)c3cc(=O)[nH]c4c(F)cccc34)C2)CC1 [Compound 14]', 'yes (1)'),
  ('O=C(N[C@@H]1CCN(c2c(C(=O)N3CCOCC3)cc(Br)cc2C(F)(F)F)C1)c1cc(=O)[nH]c2c(F)c(F)ccc12 [Compound 51]', 'yes (1)'),
  ('O=C(N[C@@H]1CCN(c2c(C(=O)N3CCCC3)cc(Br)cc2C(F)(F)F)C1)c1cc(=O)[nH]c2c(F)cccc12 [Compound 68]', 'no (0)');

* * *

- TARGET_OR_TEST_SYSTEM: SARS-CoV-2 Mpro (Severe acute respiratory syndrome coronavirus 2 (2019-nCoV) (SARS-CoV-2))
EC50 strictly under 500 pM means fulfilled; at 500 pM or over means not fulfilled.

INSERT INTO results (compound, assigned_label) VALUES
  ('COc1cccc2[nH]c(=O)cc(C(=O)N[C@H]3CN(c4c(C(=O)N5CCOCC5)cc(C)cc4C4CC4)C[C@@H]3OC)c12', 'not fulfilled'),
  ('Cc1cc(C(=O)N2CCOCC2)c(N2CC[C@@H](NC(=O)c3cc(=O)[nH]c4c(F)cccc34)C2)c(C2CC2)c1', 'fulfilled'),
  ('O=C(N[C@@H]1CCN(c2c(C(=O)N3CCOCC3)cc(Br)cc2C(F)(F)F)C1)c1cc(=O)[nH]c2c(F)cc(F)cc12', 'fulfilled'),
  ('Cc1cc(C(=O)N[C@@H]2CCN(c3c(C(=O)N4CCOCC4)cc(C#N)cc3C(F)(F)F)C2)c(F)c(=O)[nH]1', 'not fulfilled'),
  ('O=C(N[C@@H]1CCN(c2c(C(=O)N3CCN4CCOCC4C3)cc(Br)cc2C(F)(F)F)C1)c1cc(=O)[nH]c2c(F)cccc12 (stereo partly shown)', 'fulfilled'),
  ('Cc1cc(C(=O)N[C@@H]2CCN(c3c(C(=O)N4CCOCC4)cc(C#N)cc3C(F)F)C2)c(F)c(=O)[nH]1', 'not fulfilled'),
  ('O=C(N[C@@H]1CCN(c2c(C(=O)N3CCOCC3)cc(Br)cc2C(F)F)C1)c1c(F)c(=O)[nH]c2c(F)cccc12', 'fulfilled'),
  ('Cc1cc(C(=O)N2CCOCC2)c(N2C[C@H](NC(=O)c3cc(=O)[nH]c4c(F)cc(F)cc34)CC2=O)c(C2CC2)c1', 'not fulfilled'),
  ('COc1cc(F)cc2[nH]c(=O)cc(C(=O)N[C@@H]3CCN(c4c(C(=O)N5CCOCC5)cc(Br)cc4C(F)(F)F)C3)c12', 'fulfilled'),
  ('O=C(N[C@@H]1CCN(c2c(C(=O)N3CCC(F)(F)C3)cc(Br)cc2C(F)(F)F)C1)c1cc(=O)[nH]c2c(F)cccc12', 'not fulfilled'),
  ('CO[C@H]1CN(c2c(C(=O)N3CCOCC3)cc(C#N)cc2C(F)(F)F)C[C@@H]1NC(=O)c1cc(=O)[nH]c2c(F)cccc12', 'fulfilled'),
  ('O=C(N[C@@H]1CCN(c2c(OC(F)(F)F)cc(Br)cc2C(=O)N2CCOCC2)C1)c1cc(=O)[nH]c2c(F)cccc12', 'fulfilled'),
  ('Cc1[nH]c(=O)cc(C(=O)N[C@@H]2CCN(c3c(C(=O)N4CCOCC4)cc(Br)cc3C(F)(F)F)C2)c1F', 'not fulfilled'),
  ('N#Cc1cc(C(=O)N2CCOCC2)c(N2CC[C@@H](NC(=O)c3cc(=O)[nH]c4c(F)c(F)ccc34)C2)c(C(F)(F)F)c1', 'fulfilled'),
  ('O=C(N[C@@H]1CCN(c2c(OC(F)(F)F)cc(Cl)cc2C(=O)N2CCOCC2)C1)c1cc(=O)[nH]c2c(F)cccc12', 'not fulfilled'),
  ('O=C(N[C@@H]1CCN(c2c(C(=O)N3CCOCC3)cc(Br)cc2C(F)(F)F)C1)c1cc(C(F)F)[nH]c(=O)c1', 'not fulfilled'),
  ('O=C(N[C@@H]1CCN(c2c(C(=O)N3CCOCC3)cc(Br)cc2C(F)(F)F)C1)c1cc(=O)[nH]c2c(Cl)cccc12', 'fulfilled'),
  ('CN1CCN(C(=O)c2cc(C#N)cc(C3CC3)c2N2CC[C@@H](NC(=O)c3cc(=O)[nH]c4c(F)cccc34)C2)CC1', 'fulfilled'),
  ('N#Cc1cc(C(=O)N2CCOCC2)c(N2C[C@H](NC(=O)c3cc(=O)[nH]c4c(F)c(F)ccc34)CC2=O)c(C(F)(F)F)c1', 'not fulfilled'),
  ('O=C(N[C@@H]1CCN(c2c(C(=O)N3CC4(COC4)C3)cc(Br)cc2C(F)(F)F)C1)c1cc(=O)[nH]c2c(F)cccc12', 'not fulfilled');

* * *

Here we list compounds with their recorded pEC50 when tested on OC43 Mpro (Human coronavirus OC43 (HCoV-OC43), UniProt P0C6X6).
Sequence (P0C6X6 3247-3549 limits assumed): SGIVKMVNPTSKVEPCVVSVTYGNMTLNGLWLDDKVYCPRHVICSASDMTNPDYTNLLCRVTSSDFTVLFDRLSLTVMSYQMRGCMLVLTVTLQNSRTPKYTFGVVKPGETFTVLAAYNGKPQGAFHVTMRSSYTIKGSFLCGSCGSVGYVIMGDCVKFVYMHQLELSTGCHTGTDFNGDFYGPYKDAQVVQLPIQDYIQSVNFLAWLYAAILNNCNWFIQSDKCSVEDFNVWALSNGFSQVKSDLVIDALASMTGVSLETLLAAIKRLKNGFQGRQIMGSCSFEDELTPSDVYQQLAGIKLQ
pEC50: −log10 of the molar value.
METRIC: pEC50

INSERT INTO results (smiles_code, target_or_test_system, metric, result_value) VALUES
  ('O=C(N[C@@H]1CCN(c2c(OC(F)(F)F)cc(Br)cc2C(=O)N2CCOCC2)C1)c1cc(=O)[nH]c2c(F)cccc12', 'OC43 Mpro (Human coronavirus OC43 (HCoV-OC43), UniProt P0C6X6)', 'pEC50', 8.85),
  ('N#Cc1cc(C(=O)N2CCOCC2)c(N2CC[C@@H](NC(=O)c3cc(=O)[nH]c4c(F)cccc34)C2)c(C2CC2)c1', 'OC43 Mpro (Human coronavirus OC43 (HCoV-OC43), UniProt P0C6X6)', 'pEC50', 9.26),
  ('CN1CCN(C(=O)c2cc(C#N)cc(C3CC3)c2N2CC[C@@H](NC(=O)c3cc(=O)[nH]c4c(F)cccc34)C2)CC1', 'OC43 Mpro (Human coronavirus OC43 (HCoV-OC43), UniProt P0C6X6)', 'pEC50', 9.16),
  ('O=C(N[C@@H]1CCN(c2c(C(=O)N3CCOCC3)cc(Cl)cc2C(F)(F)F)C1)c1cc(=O)[nH]c2c(F)cccc12', 'OC43 Mpro (Human coronavirus OC43 (HCoV-OC43), UniProt P0C6X6)', 'pEC50', 9.08),
  ('CO[C@H]1CN(c2c(C(=O)N3CCOCC3)cc(C#N)cc2C(F)(F)F)C[C@@H]1NC(=O)c1cc(=O)[nH]c2c(F)cccc12', 'OC43 Mpro (Human coronavirus OC43 (HCoV-OC43), UniProt P0C6X6)', 'pEC50', 8.93),
  ('Cc1cc(C(=O)N2CCOCC2)c(N2CC[C@@H](NC(=O)c3cc(C)[nH]c(=O)c3F)C2)c(C2CC2)c1', 'OC43 Mpro (Human coronavirus OC43 (HCoV-OC43), UniProt P0C6X6)', 'pEC50', 8.91),
  ('COc1cccc2[nH]c(=O)cc(C(=O)N[C@@H]3CCN(c4c(C5CC5)ccc(F)c4C(=O)N4CCOCC4)C3)c12', 'OC43 Mpro (Human coronavirus OC43 (HCoV-OC43), UniProt P0C6X6)', 'pEC50', 8.84),
  ('O=C(N[C@@H]1CCN(c2c(C(=O)N3CCOCC3)cc(Br)cc2C(F)(F)F)C1)c1c(F)c(=O)[nH]c2c(F)c(F)ccc12', 'OC43 Mpro (Human coronavirus OC43 (HCoV-OC43), UniProt P0C6X6)', 'pEC50', 8.92),
  ('O=C(N[C@@H]1CCN(c2c(C(=O)N3CCOCC3)cc(Br)cc2C(F)(F)F)C1)c1cc(=O)[nH]c2c(F)c(F)ccc12', 'OC43 Mpro (Human coronavirus OC43 (HCoV-OC43), UniProt P0C6X6)', 'pEC50', 8.96),
  ('N#Cc1cc(C(=O)N2CCOCC2)c(N2CC[C@@H](NC(=O)c3cc(=O)[nH]c4c(F)cc(F)cc34)C2)c(C(F)(F)F)c1', 'OC43 Mpro (Human coronavirus OC43 (HCoV-OC43), UniProt P0C6X6)', 'pEC50', 8.31),
  ('Cc1cc(C(=O)N2CCOCC2)c(N2C[C@H](NC(=O)c3cc(=O)[nH]c4c(F)c(F)ccc34)C[C@H]2C)c(C2CC2)c1', 'OC43 Mpro (Human coronavirus OC43 (HCoV-OC43), UniProt P0C6X6)', 'pEC50', 9.38),
  ('COc1cccc2[nH]c(=O)cc(C(=O)N[C@@H]3CCN(c4c(C(=O)N5CCOCC5)cc(C#N)cc4C(F)(F)F)C3)c12', 'OC43 Mpro (Human coronavirus OC43 (HCoV-OC43), UniProt P0C6X6)', 'pEC50', 8.55),
  ('O=C(N[C@@H]1CCN(c2c(C(=O)N3CCOCC3)cc(Cl)cc2C(F)(F)F)C1)c1c(F)c(=O)[nH]c2c(F)cccc12', 'OC43 Mpro (Human coronavirus OC43 (HCoV-OC43), UniProt P0C6X6)', 'pEC50', 9.38),
  ('O=C(N[C@@H]1CCN(c2c(C(=O)N3CCOCC3)cc(Br)cc2C(F)(F)F)C1)c1cc(=O)[nH]c2c(F)ccc(F)c12', 'OC43 Mpro (Human coronavirus OC43 (HCoV-OC43), UniProt P0C6X6)', 'pEC50', 9.08),
  ('O=C(N[C@@H]1CCN(c2c(C(=O)N3CCOCC3)cc(Br)cc2C(F)(F)F)C1)c1c(F)c(=O)[nH]c2c(F)cccc12', 'OC43 Mpro (Human coronavirus OC43 (HCoV-OC43), UniProt P0C6X6)', 'pEC50', 9.36),
  ('CN1CCN(C(=O)c2cc(C#N)cc(C(F)(F)F)c2N2CC[C@@H](NC(=O)c3cc(=O)[nH]c4c(F)cccc34)C2)CC1', 'OC43 Mpro (Human coronavirus OC43 (HCoV-OC43), UniProt P0C6X6)', 'pEC50', 8.70),
  ('N#Cc1cc(C(=O)N2CCOCC2)c(N2CC[C@@H](NC(=O)c3c(F)c(=O)[nH]c4ccccc34)C2)c(C(F)(F)F)c1', 'OC43 Mpro (Human coronavirus OC43 (HCoV-OC43), UniProt P0C6X6)', 'pEC50', 8.84),
  ('O=C(N[C@@H]1CCN(c2c(C(=O)N3CCOCC3)cc(Br)cc2C(F)(F)F)C1)c1cc(=O)[nH]c2c(F)cc(F)cc12', 'OC43 Mpro (Human coronavirus OC43 (HCoV-OC43), UniProt P0C6X6)', 'pEC50', 8.79);
